Assay: chemical genetic growth profiling, strain panel (AID 1159580);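 further: tested at 20 µM; growth read once vehicle control cultures reached saturation at 30 °C; 1 = growth at the plate median or of vehicle wells; lower values mean less growth of the strain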
Settings: S. cerevisiae deletion strains, growth OD, locus YDL035C, strain GPR1, stronger effect = lower value
Out of some 5,500 compounds screened, about 2,000 (36%) were called active. About 18% were inconclusive and are not listed. The list shows a part of the results.
Measured normalized growth, listed per entry for reference.
Lab note: jot the number down without any unit.

Solved entries (count: 5):
molecule | reported_value
CCC[C@H](N[C@@H](C)C(=O)N1[C@H](C(=O)O)C[C@@H]2CCCC[C@@H]21)C(=O)OCC | 1.01
COc1ccc2c(c1)OC1(O)COc3cc(OC)c(OC)cc3C1=C2 (stereo not given) | 0.974
Cc1ncc(CNC(=O)N(CCCl)N=O)c(N)n1 | 1
Oc1cc(O)c2c(c1)O[C@H](c1cc(O)c(O)c(O)c1)[C@H](O)C2 | 1.03
CCCCCCCCC(=O)NCc1ccc(O)c(OC)c1 | 0.981

## Task Could you tell me which normalized growth is on file for CC1(C)CCC[C@@]2(C)C1[C@@H](O)C[C@]1(C)C2CC[C@@H]2[C@@]3(C)CC[C@H](C(C)(C)O)[C@@H]3CC[C@@]21C (stereo not given in full) ?
## Result 1.01

## Task // repeat for `CCCCCCCCCCC[C@@H](C[C@H]1OC(=O)[C@H]1CCCCCC)OC(=O)[C@@H](CC(C)C)NC=O` and report
## Result 1.05

## Task Try this molecule next: CCC1(O)CC(OC2CC(N(C)C)C(OC3CC(O)C(OC4CCC(=O)C(C)O4)C(C)O3)C(C)O2)c2c(cc3c(c2O)C(=O)c2c(O)cccc2C3=O)C1C(=O)OC (stereo not given)
## Result 0.978

## Task Here is the next molecule: `CN1C2C[C@H](OC(=O)[C@H](CO)c3ccccc3)C[C@H]1[C@@H](O)C2`
## Result 1.02

## Task And what about the molecule `O=C(O[C@@H]1Cc2c(O)cc(O)cc2O[C@@H]1c1cc(O)c(O)c(O)c1)c1cc(O)c(O)c(O)c1` ?
## Result 0.333

## Task Another molecule: CCCCCCC(C)OC(=O)COc1cc(Cl)c(Cl)cc1Cl (stereo not given)
## Result 1

## Task Again, but for `C[C@H]1COc2c(N3CCN(C)CC3)c(F)cc3c(=O)c(C(=O)O)cn1c23`
## Result 1.02

## Task Please do the same for `c1ccc2c(c1)sc1ccccc12` as well.
## Result 0.99

## Task Same again, this time with C=C1CCC2[C@](C)(CO)[C@H](O)CC[C@@]2(C)[C@@H]1C/C=C1/C(=O)OC[C@H]1O (stereo not given in full)
## Result 1.02

## Task Check O=C(OCC(O)CO)c1ccccc1Nc1ccnc2cc(Cl)ccc12 (stereo not given) too.
## Result 1.01

## Task What do you have for `C[n+]1c2cc(N)ccc2cc2ccc(N)cc21` ?
## Result 0.72

## Task Cool, now `COc1cc(OC)c2c(c1)O[C@H](c1cc(OC)c(OC)c(OC)c1)[C@H](OC(=O)c1cc(OC)c(OC)c(OC)c1)C2`
## Result 0.994

## Task Entry to check: `CCN(CC)Cc1ccc(Nc2ccnc3cc(Cl)ccc23)cc1O`
## Result 1.01

====

Experiment: chemical genetic growth profiling, strain panel (AID 1159580);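 further: tested at 20 µM; growth read once vehicle control cultures reached saturation at 30 °C; 1 = growth at the plate median or of vehicle wells; lower values mean less growth of the strain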
Settings: S. cerevisiae deletion strains, growth OD, locus YOR106W, strain vam3, stronger effect = lower value
Hit rate of the full screen: of about 5,500 compounds, about 2,000 (36%) were called active. Roughly 18% stayed inconclusive and do not appear here. This is one part of the list.
observable: normalized growth
// no unit, no text: just the number

Solved entries:
molecule | observable | reported_value
O=C1C(Cl)=C(Cl)C(=O)C(Cl)=C1Cl | normalized growth | 0.856
COC(=O)C[C@H]1C2(C)CC34OC5(C)O[C@@]6([C@H](OC)C(OC(=O)C(C)C)[C@]7(C)C(/C(=C(/OC)C(C)C)C(=O)O[C@H]7c7ccoc7)[C@@]6(O5)[C@H](OC)[C@@]3(OC)C2OC(C)=O)[C@]14C (some centres undefined) | normalized growth | 0.953

## Task Query: normalized growth; subject: `c1ccc2c(c1)sc1ccccc12`
## Result 0.727

## Task Now consider CCC(C)C(=O)O[C@@H]1C[C@@]2(C)[C@H](c3ccoc3)OC(=O)CC23OC2(C)OC34[C@H](OC(=O)C(C)C)[C@@]3(O)[C@@H](OC(=O)C5(C)OC5C)[C@@]5(C)C[C@]3(O)[C@@](C)([C@H]5CC(=O)OC)C14O2 (some centres undefined) .
## Result 0.998

## Task Check CC#CC1(O)CCC2C3CCC4=CC(=O)CCC4=C3C(c3ccc(N(C)C)cc3)CC21C (centres undefined) too.
## Result 0.986

## Task Same again, this time with `COc1ccc(C(=O)O)cc1OC`
## Result 1.02

## Task Next entry: `O=S(=O)(O)CCS`
## Result 0.982

## Task Next molecule: COc1ccc2c(c1)OC1(O)COc3cc(OC)c(OC)cc3C1=C2 (centres undefined)
## Result 0.995

## Task Note, next up: `C=CCc1ccc(O)c(OC)c1`
## Result 1.04
